- assay-target: UniProtKB P10938
- Sequence (P10938 whole entry): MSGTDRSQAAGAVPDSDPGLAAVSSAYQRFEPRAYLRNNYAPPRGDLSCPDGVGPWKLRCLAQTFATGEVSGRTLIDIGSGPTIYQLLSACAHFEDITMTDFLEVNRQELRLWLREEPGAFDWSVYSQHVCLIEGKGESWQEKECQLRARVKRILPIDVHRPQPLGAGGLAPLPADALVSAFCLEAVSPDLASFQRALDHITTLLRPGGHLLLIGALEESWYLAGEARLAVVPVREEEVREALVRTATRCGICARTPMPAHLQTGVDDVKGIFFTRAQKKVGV
- assay-procedure: In vitro inhibitory activity against bovine adrenal phenylethanolamine N-methyl-transferase (PNMT)
Each item that follows carries a reported Ki.

- compound: "OCc1ccc2c(c1)CNCC2"
  assay-target: "UniProtKB P10938"
  Ki: "11 µM"
- compound: "C[S+]([O-])c1ccc2c(c1)CNCC2 (stereo not drawn)"
  assay-target: "UniProtKB P10938"
  Ki: "45 µM"
- compound: "CC(=O)c1ccc2c(c1)CNCC2"
  assay-target: "UniProtKB P10938"
  Ki: "4.9 µM"
- compound: "NCc1ccc2c(c1)CNCC2"
  assay-target: "UniProtKB P10938"
  Ki: "1900 µM"
- compound: "O=[N+]([O-])c1ccc2c(c1)CNCC2"
  assay-target: "UniProtKB P10938"
  Ki: "0.41 µM"
- compound: "Nc1ccc2c(c1)CNCC2"
  assay-target: "UniProtKB P10938"
  Ki: "27 µM"
- compound: "O=C(O)c1ccc2c(c1)CNCC2"
  assay-target: "UniProtKB P10938"
  Ki: "470 µM"
- compound: "CS(=O)(=O)c1ccc2c(c1)CNCC2"
  assay-target: "UniProtKB P10938"
  Ki: "1.3 µM"
- compound: "CS(=O)(=O)N(c1ccc2c(c1)CNCC2)S(C)(=O)=O"
  assay-target: "UniProtKB P10938"
  Ki: "~4500 µM"
- compound: "NC(=O)c1ccc2c(c1)CNCC2"
  assay-target: "UniProtKB P10938"
  Ki: "64 µM"
- compound: "CC(=O)Nc1ccc2c(c1)CNCC2"
  assay-target: "UniProtKB P10938"
  Ki: "190 µM"
- compound: "COc1ccc2c(c1)CNCC2"
  assay-target: "UniProtKB P10938"
  Ki: "21 µM"
- compound: "O=C(c1ccccc1)c1ccc2c(c1)CNCC2"
  assay-target: "UniProtKB P10938"
  Ki: "2.9 µM"
- compound: "O=C(c1ccc2c(c1)CNCC2)C(F)(F)F"
  assay-target: "UniProtKB P10938"
  Ki: "5.7 µM"
- compound: "O=S(=O)(c1ccccc1)c1ccc2c(c1)CNCC2"
  assay-target: "UniProtKB P10938"
  Ki: "14 µM"
- compound: "C=CCS(=O)(=O)c1ccc2c(c1)CNCC2"
  assay-target: "UniProtKB P10938"
  Ki: "9.8 µM"
- compound: "COC(=O)c1ccc2c(c1)CNCC2"
  assay-target: "UniProtKB P10938"
  Ki: "6.7 µM"
- compound: "N#Cc1ccc2c(c1)CNCC2"
  assay-target: "UniProtKB P10938"
  Ki: "1.4 µM"

---

- Species: Bos taurus
- assay-procedure: Binding selectivity against PNMT and alpha-2-adrenoceptors, measured as a ratio of respective in vitro Ki's.
We begin with a simple list: items and their reported Selectivity.

- molecule: "O=S(=O)(c1ccccc1)c1ccc2c(c1)CNCC2"
  Selectivity: 1.5
- molecule: "Nc1ccc2c(c1)CNCC2"
  Selectivity: 0.11
- molecule: "CS(=O)(=O)c1ccc2c(c1)CNCC2"
  Selectivity: 120
- molecule: "NCc1ccc2c(c1)CNCC2"
  Selectivity: 0.0063
- molecule: "COc1ccc2c(c1)CNCC2"
  Selectivity: 0.022
- molecule: "OCc1ccc2c(c1)CNCC2"
  Selectivity: 0.21
- molecule: "Oc1ccc2c(c1)CNCC2"
  Selectivity: 0.85
- molecule: "CS(=O)(=O)Nc1ccc2c(c1)CNCC2"
  Selectivity: 0.23
- molecule: "C[S+]([O-])c1ccc2c(c1)CNCC2 (stereo not drawn)"
  Selectivity: 1.1
- molecule: "CS(=O)(=O)NCc1ccc2c(c1)CNCC2"
  Selectivity: 0.055
- molecule: "CS(=O)(=O)N(c1ccc2c(c1)CNCC2)S(C)(=O)=O"
  Selectivity: 0.042
- molecule: "NS(=O)(=O)c1ccc2c(c1)CNCC2"
  Selectivity: 180
- molecule: "O=C(c1ccccc1)c1ccc2c(c1)CNCC2"
  Selectivity: 9.3
- molecule: "C=CCS(=O)(=O)c1ccc2c(c1)CNCC2"
  Selectivity: 9.7
- molecule: "N#Cc1ccc2c(c1)CNCC2"
  Selectivity: 5.2
- molecule: "O=C(O)c1ccc2c(c1)CNCC2"
  Selectivity: 1
- molecule: "O=S(=O)(Nc1ccc(Cl)cc1)c1ccc2c(c1)CNCC2"
  Selectivity: 2.4
- molecule: "CC(=O)Nc1ccc2c(c1)CNCC2"
  Selectivity: 0.48
- molecule: "COC(=O)c1ccc2c(c1)CNCC2"
  Selectivity: 0.68
- molecule: "CC(=O)c1ccc2c(c1)CNCC2"
  Selectivity: 1.2
- molecule: "O=[N+]([O-])c1ccc2c(c1)CNCC2"
  Selectivity: 10
- molecule: "NC(=O)c1ccc2c(c1)CNCC2"
  Selectivity: 0.36
- molecule: "O=C(c1ccc2c(c1)CNCC2)C(F)(F)F"
  Selectivity: 5.6

---

Let's look at some compounds and their measured Ki.
- assay-target: Adrenergic receptor alpha-2 (Rattus norvegicus, UniProt P22086+P19328+P22909)
- assay-procedure: In vitro inhibitory activity against Alpha-2 adrenergic receptor using [3H]clonidine as radioligand in male Sprague-Dawley rats
- Assay type: protein assay

- compound: "CC(=O)Nc1ccc2c(c1)CNCC2"
  Ki / µM: 9.1
- compound: "CS(=O)(=O)c1ccc2c(c1)CNCC2"
  Ki / µM: 160
- compound: "C[S+]([O-])c1ccc2c(c1)CNCC2 (centres undefined)"
  Ki / µM: 51
- compound: "O=S(=O)(c1ccccc1)c1ccc2c(c1)CNCC2"
  Ki / µM: 21
